System name: UniProt:P41149
Method summary: AlphaScreen cAMP agonist assay, HEK293 cells stably expressing mMC5R
# reported pEC50; entries follow
Note on pEC50: it is the negative log10 of concentration, concentration in mol/L.

[
  {
    "Compound": "CC(C)C[C@@H]1CNC(=N)N1C[C@@H]1CCCN1C[C@@H](Cc1ccccc1)N1C[C@H]([C@@H](C)O)N(CC2CCC(C(C)(C)C)CC2)C1=N (stereo partly drawn) [Compound 2718.030]",
    "pEC50": 5.30
  }
]

I am curious: what pEC50 value has been reported for CC(C)C[C@@H]1CNC(=N)N1C[C@H]1CCCN1C[C@@H](Cc1ccccc1)N1C[C@@H]([C@H](C)O)N(CC2CCC(C(C)(C)C)CC2)C1=N (stereo partly drawn) [Compound 2718.032] ?
6.22

I am curious: what pEC50 value has been reported for CC(C)C[C@@H]1CNC(=N)N1C[C@@H]1CCCN1C[C@H](CC1CCCCC1)N1C[C@@H]([C@H](C)O)N(CC2CCC(C(C)(C)C)CC2)C1=N (stereo partly drawn) [Compound 2718.046] ?
5.30

* * *

System name: UniProt:P56450
Method summary: AlphaScreen cAMP agonist assay, HEK293 cells stably expressing mMC4R
# reported pEC50; entries follow
Note on pEC50: it is the negative log10 of concentration, concentration in mol/L.

[
  {
    "Compound": "CC(C)C[C@@H]1CNC(=N)N1C[C@H]1CCCN1C[C@@H](CC1CCCCC1)N1C[C@@H]([C@H](C)O)N(CC2CCC(C(C)(C)C)CC2)C1=N (stereo partly drawn) [Compound 2718.047]",
    "pEC50": 5.51
  }
]

Moving on to the next compound.
Give pEC50 (UniProt:P56450) of the following compound: CCC[C@@H]1CN([C@H](CC2CCCCC2)CN2CCC[C@H]2CN2CCNC2=N)C(=N)N1CC1CCC(C(C)(C)C)CC1 (stereo partly drawn) [Compound 2718.029]
5.54

* * *

# reported EC50; entries follow
System name: mMC5R (Mus musculus)
Sequence (P41149 whole entry): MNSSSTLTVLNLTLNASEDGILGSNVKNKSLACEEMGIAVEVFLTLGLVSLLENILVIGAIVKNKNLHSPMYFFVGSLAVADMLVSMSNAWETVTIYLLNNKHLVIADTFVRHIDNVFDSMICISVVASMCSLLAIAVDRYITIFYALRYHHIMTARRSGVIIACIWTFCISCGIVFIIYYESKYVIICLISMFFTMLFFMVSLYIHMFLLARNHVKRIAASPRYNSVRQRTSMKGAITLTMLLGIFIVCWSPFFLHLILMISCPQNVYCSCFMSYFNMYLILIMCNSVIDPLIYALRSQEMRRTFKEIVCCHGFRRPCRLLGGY
Method summary: AlphaScreen cAMP agonist assay, HEK293 cells stably expressing mMC5R
Report only the number, with the unit nM understood.

// worked examples, EC50 included
[
  {
    "Molecule": "CC(C)[C@@H]1CNC(=N)N1C[C@@H]1CCCN1C[C@@H](CC1CCCCC1)N1CCN(CC2CCC(C(C)(C)C)CC2)C1=N (stereo partly drawn)",
    "Numeric readout": 510
  },
  {
    "Molecule": "CC(C)C[C@@H]1CNC(=N)N1C[C@@H]1CCCN1C[C@@H](Cc1ccccc1)N1CCN(CC2CCC(C(C)(C)C)CC2)C1=N (stereo partly drawn)",
    "Numeric readout": 320
  }
]

I am curious: what EC50 value has been reported for CCC[C@H]1CN([C@H](CC2CCCCC2)CN2CCC[C@H]2CN2C(=N)NC[C@H]2C(C)C)C(=N)N1CC1CCC(C(C)(C)C)CC1 (stereo partly drawn) ?
4200

* * *

System name: mMC4R (Mus musculus, UniProt P56450)
Sequence (P56450 whole entry): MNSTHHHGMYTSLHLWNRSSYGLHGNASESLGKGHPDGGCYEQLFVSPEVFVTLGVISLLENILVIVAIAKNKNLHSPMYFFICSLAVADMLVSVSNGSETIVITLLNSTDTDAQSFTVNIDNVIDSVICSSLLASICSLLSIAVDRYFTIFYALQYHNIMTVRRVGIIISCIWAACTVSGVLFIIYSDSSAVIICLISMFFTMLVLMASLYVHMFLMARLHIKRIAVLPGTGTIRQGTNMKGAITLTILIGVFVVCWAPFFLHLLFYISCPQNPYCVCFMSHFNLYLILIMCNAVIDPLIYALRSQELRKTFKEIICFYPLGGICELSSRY
Method summary: AlphaScreen cAMP agonist assay, HEK293 cells stably expressing mMC4R
Assay setup: at 1 mM; not enough stimulation to determine EC50
Binary label based on mMC4R percent maximal stimulatory response (compared to NDP-MSH) with cut-off 50 % @ 1 mM: below gives 1, not below gives -1.

[
  {
    "Molecule": "CC(C)C[C@@H]1CNC(=N)N1C[C@@H]1CCCN1C[C@H](Cc1ccccc1)N1C[C@@H]([C@H](C)O)N(CC2CCC(C(C)(C)C)CC2)C1=N (stereo partly drawn)",
    "Discrete label": -1
  }
]

I wonder whether CCC[C@@H]1CN([C@H](CC2CCCCC2)CN2CCC[C@H]2CN2C(=N)NC[C@@H]2C(C)C)C(=N)N1CC1CCC(C(C)(C)C)CC1 (stereo partly drawn) has mMC4R percent maximal stimulatory response (compared to NDP-MSH) below 50 % @ 1 mM. Can you tell?
-1

I wonder whether CCCCC(CN1CCCC1CN1C(=N)NCC1CC(C)C)N1CC(C(C)O)N(CC2CCC(C(C)(C)C)CC2)C1=N (stereo not drawn) has mMC4R percent maximal stimulatory response (compared to NDP-MSH) below 50 % @ 1 mM. Can you tell?
1

Taken from paper PMC10299128.
